Test: Tmax in Sprague-Dawley rat at 5 mg/kg, po
Assay type: ADME, organism-based
Design: dose 5 mg/kg, route oral
Conditions: in vivo
endpoint: Tmax (h)
Provide the reading as a plain figure in h.

Q: Need Tmax, item CC(C)Cn1c2ccc(Nc3ncccn3)cc2c2c3c(c4c(c21)CCc1nn(C)cc1-4)C(=O)NC3 [CEP-11981]
Result: 2

====

Molecular target: UniProtKB P36888
Sequence (P36888 whole entry): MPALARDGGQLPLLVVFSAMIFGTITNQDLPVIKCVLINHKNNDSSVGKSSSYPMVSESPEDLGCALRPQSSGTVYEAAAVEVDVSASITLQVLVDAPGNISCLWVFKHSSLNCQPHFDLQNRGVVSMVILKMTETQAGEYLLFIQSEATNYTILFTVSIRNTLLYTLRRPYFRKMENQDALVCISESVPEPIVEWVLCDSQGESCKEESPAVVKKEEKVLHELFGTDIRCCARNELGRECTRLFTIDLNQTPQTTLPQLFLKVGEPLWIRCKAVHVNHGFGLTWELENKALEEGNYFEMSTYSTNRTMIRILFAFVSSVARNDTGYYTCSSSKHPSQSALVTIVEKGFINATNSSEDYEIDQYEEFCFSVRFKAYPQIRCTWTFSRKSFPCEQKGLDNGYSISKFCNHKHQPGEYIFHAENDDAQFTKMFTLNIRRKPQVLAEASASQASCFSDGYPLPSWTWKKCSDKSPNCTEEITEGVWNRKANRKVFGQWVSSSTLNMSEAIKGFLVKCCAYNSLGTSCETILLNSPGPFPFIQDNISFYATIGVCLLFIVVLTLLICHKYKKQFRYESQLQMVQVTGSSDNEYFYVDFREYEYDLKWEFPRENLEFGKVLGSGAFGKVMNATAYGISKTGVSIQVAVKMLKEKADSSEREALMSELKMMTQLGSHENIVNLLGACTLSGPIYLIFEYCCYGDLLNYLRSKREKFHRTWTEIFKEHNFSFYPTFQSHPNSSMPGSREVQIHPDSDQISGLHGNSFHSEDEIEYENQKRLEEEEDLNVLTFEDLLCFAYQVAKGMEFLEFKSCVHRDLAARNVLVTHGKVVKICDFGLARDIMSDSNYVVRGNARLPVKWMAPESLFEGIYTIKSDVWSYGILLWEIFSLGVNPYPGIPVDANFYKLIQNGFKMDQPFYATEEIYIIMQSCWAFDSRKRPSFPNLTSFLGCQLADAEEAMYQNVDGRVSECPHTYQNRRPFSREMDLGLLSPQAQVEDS
endpoint: IC50
Don't forget the unit after the number, please.

Q: Identify the measured IC50 of CC(C)Cn1c2ccc(Nc3ncccn3)cc2c2c3c(c4c(c21)CCc1nn(C)cc1-4)C(=O)NC3 for UniProtKB P36888.
Result: 0.071 µM
